- ASSAY NAME: qHTS assay to identify small molecule antagonists of the estrogen related receptor signaling pathway with the pleiotropic PPARgamma coactivator (PGC) from Tox21 10K library - cell viability counter screen (AID 1224840); further: nearly all actives have a fitted effect of over 40% in size; further: potency means the concentration at half of the fitted maximal effect
- CONDITION PARAMETERS: PGC/ERR reporter cells viability, CellTiter-Fluor, 17.5 h; series mostly up to 92.4 µM
- Protocol: National Center for Advancing Translational Sciences [NCATS] NIH Chemical Genomics Center [NCGC] U.S. Environmental Protection Agency [EPA] National Institutes of Environmental Health Sciences [NIEHS] National Toxicology Program [NTP] […] The PGC/ERR cells were dispensed at 2,000 cells/5 ul/well in 1536-well white plates using a Multidrop dispenser. […] After 30-minute incubation at 37 C/5% CO2, the fluorescence intensity in the plates was measured using a ViewLux plate reader.
Records with an inconclusive call do not appear. Active and inactive are the calls of the source. The call rests on the fitted dose curve; in most records, active means well fitted cell-killing curve with a large enough effect in the repeat runs (not every such curve was filed as active); inconclusive means weak or mixed curves, or effect the other way; inactive means no such curve, though single readings can be large or run the other way.
MEASURE: Potency

CCOc1ccc2ccccc2c1C(=O)N[C@@H]1C(=O)N2[C@@H]1SC(C)(C)[C@@H]2C(=O)O; inactive
CNc1ccc([N+](=O)[O-])cc1; 48.7 µM (active)
C=CCCC(=O)/C=C/C1C(C)=CCCC1(C)C (stereo unspecified); inactive
Cc1c(C)c2c(c(C)c1O)CC[C@@](C)(CCC[C@H](C)CCC[C@H](C)CCCC(C)C)O2; inactive
CCCCCCCCCCCCOC(=O)c1ccc(O)cc1; inactive

Read the next record carefully.
Name the recorded Potency of the item Cc1cc(C(C#N)c2ccc(Cl)cc2)c(Cl)cc1NC(=O)c1cc(I)cc(I)c1O (stereo unspecified) in your answer.
inactive
